# Test system: JEG-3
# method: Confirmatory qHTS for gynecologic anti-cancer compounds from libraries of approved drugs and bioactive compounds; also: nearly all actives have a fitted effect of over 55% in size
# test settings: gynecologic cancer cell panel viability, ATPlite luminescence, 48 h; series mostly up to 57.6 µM
Results filed as inconclusive are left out. The source made the active and inactive calls. Calls follow the shape of the dose curve; as a rule, active = well fitted cell-killing curve with a large enough effect; inconclusive = small, poorly fitted or top-dose-only effect, or effect the other way; inactive = no such curve, though single readings can be large or run the other way.
Could you please pick one outcome from this set? active, inactive

As a guide, the following entries are already answered.
compound	group
CN(C[C@@H]1COCCO1)S(=O)(=O)Nc1ccc2ccc3ncc(-c4cnn(C)c4)cc3c(=O)c2c1	inactive
O=c1c2ccccc2nc2n1CCc1c-2[nH]c2ccccc12	inactive
OC[C@H]1O[C@@H](n2cnc3c(=S)nc[nH]c32)[C@H](O)[C@@H]1O	active
C[C@]12CCC(=O)C=C1[C@@H]1C[C@@H]1[C@H]1[C@@H]3[C@@H]4C[C@@H]4[C@@]4(CCC(=O)O4)[C@@]3(C)CC[C@@H]12	inactive
CC(C)Oc1ccc2c(=O)c(-c3ccccc3)coc2c1	active

Inquiry: What did this assay record as the result for `CS(=O)(=O)c1ccc(C(=O)Nc2ccc(Cl)c(-c3ccccn3)c2)c(Cl)c1` ?
Reply text: inactive

Inquiry: What did this assay record as the result for `C[C@]12CCC(=O)C=C1CC[C@@H]1[C@@H]2[C@@H](O)C[C@@]2(C)[C@H]1CC[C@]2(O)C(=O)CO` ?
Reply text: inactive

Inquiry: What did this assay record as the result for `Nc1ccc(-c2ccc3ncc4ccc(=O)n(-c5cccc(C(F)(F)F)c5)c4c3c2)cn1` ?
Reply text: active

Inquiry: What did this assay record as the result for `CC(=O)Nc1cccc(-n2c(=O)n(C3CC3)c(=O)c3c(Nc4ccc(I)cc4F)n(C)c(=O)c(C)c32)c1` ?
Reply text: inactive

Inquiry: What did this assay record as the result for `Cn1cnc2c(F)c(Nc3ccc(Br)cc3F)c(C(=O)NOCCO)cc21` ?
Reply text: inactive

Inquiry: What did this assay record as the result for CCn1c(-c2nonc2N)nc2c(C#CC(C)(C)O)ncc(OCC3CCCNC3)c21 (stereo unspecified) ?
Reply text: inactive

Inquiry: What did this assay record as the result for `Cc1csc(NC(=O)c2sc3nc4c(c(C(F)(F)F)c3c2N)CCC4)n1` ?
Reply text: active

Inquiry: What did this assay record as the result for `COc1ccc2c(c1)c(CC(=O)O)c(C)n2C(=O)c1ccc(Cl)cc1` ?
Reply text: inactive

Inquiry: What did this assay record as the result for `CC[C@@]1(O)C(=O)OCc2c1cc1n(c2=O)Cc2cc3cc(O)ccc3nc2-1` ?
Reply text: active

Measured values drawn from PubChem BioAssay AID1345085 for this set.
